Give protease stability score for every item shown.
Test: protease stability score; higher = more stable; yeast display proteolysis, trypsin and chymotrypsin;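 further: log10 excess protease needed over predicted unfolded state with 0 meaning unfolded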
API note: the answer field is a bare number with no unit suffix.

Value lookup for protease stability score; key = `DEEEMEKVLQVQSTGNPDRYRKLADKDVRLVVGDTEVQGKEKVVKKVHDFHKQIDHQDYESMSAEGNRIDVLLRNVVNGQELVLRVVVRVHNGRIKEVELRARSEEEQSRFDHAWK`
0.093

I have this sequence here, `DDRIRQVVEEWWKAVETNDPDKAKENVDKDVRVEVGDKQFRGSETLEKRIRDEKDHARVVVRMQSVSVHGDTVDVTYNVVVEVNGNPLRFKAQAFFRARNGRMQSIQFSFSKEDKKRVDG` , and I need its recorded protease stability score.
0.916

Can you look up the measured protease stability score of `DEEAAKRAEEYLKALRSGNPDDLKKQIDPNASYQIGDKRVHGREQQATLAHNLQHNMRMEWELKDYRVQGNSVTLEIDVVIEHNGRPEKFKADVRVTFHNGKIQEMTVREDK` for me?
0.051

I'd like to know its protease stability score. The sequence in question is `EDEELRKMVKQWEKGDPDQLLRYADEDAEFKVGDQQFHGREQLKHYIKRLKHRVDHFQIRKVTREGDRVRIDAFQVVNGRKIVYVFVLEVKNGRLKRLTMDFRDEKDERHFRTMLK`
0.902

What protease stability score value was documented for this sequence, `EEEDVETAKQFIEAEEKGDEDRLVELADPNARFNVGDKNLHGREHAAREMRKHQEEADLRLEDVRLDVHNGRVDIELVFTHRHNGQPTRQKVKLTFEQHNGQLTHVQNDETK` ?
0.558

For `DEKARKILKKMMHALEKGDEDKVRHLLDPNVKVRIGDKDITGREEVARNIFKTLQSMRVKIDRFHVEAKGDKVRAHQTAKAQHNGQPRRYQATVTARIHNGHFQRIDIQVDK` , what is its reported protease stability score?
0.944

----------
Experiment: protease stability score; higher = more stable; yeast display proteolysis, trypsin and chymotrypsin;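 further: log10 excess protease needed over predicted unfolded state with 0 meaning unfolded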
For each record, write down the corresponding protease stability score.
// return just the number, without any unit appended

Give the measured protease stability score of `DEQEQAEELAKKMMENMETGDFDKRANQADPDARMEIGDKDVRGRETIASHQRELSDHIDHANATVLEVRVSNGDVEVRMQFRVQHNGRSRQEERIINATISGDKMRIKEFTQS` .
-0.116

Please give the measured protease stability score for this sequence: `DDEEHVEEMMRRQQNNYKHGDFEELARQFDPNATVNVGDKTYHGREQIRDWYRKRKEDVDSMDLQVQHFSVDNGRIRIQATERQHFNGQDDSTHFQAEARKHGDKAKLKHFRQQ`
-0.052

# protease stability score lookup, item `DERFRRLVHSFIQALHTNNPEEIKELFDPNARMTIGDKQVHGQEDISRLIDRERKEMRLEIKTFSVEDKGDTADVKMKAVWDVNGKPNRHSYDLNFVDHNGKIRSLHARMDSQYLREVKS`
-0.074

----------
Assay: protease stability score; higher = more stable; yeast display proteolysis, trypsin and chymotrypsin;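 further: log10 excess protease needed over predicted unfolded state with 0 meaning unfolded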
Please provide measured protease stability score for the entries that follow.
Reply briefly: the number, and no unit.

Would you mind telling me what protease stability score value was observed for `DEEEQQDHAHTLKDALTYGNEQEFRHMADENARINYGEFDYHGREQFQDVIRRIMEQADHVRVDHVQVHGEHVDIRLKVKFNGQTQRWVIIVRFHNGRIKHLSADTQ` ?
0.499

Given `DDSANERAKKVMHALKTGDPDTMSELLDPNATVDVGEKQVKGMDNIVDILRKERDQIRYSIDVKRMNAKGDKVVVDATRESHHNGQPRSWHFTIFFNNTNGRVKNLKVEESG` , state its recorded protease stability score.
0.626

Recorded protease stability score of `EEEKLQKVAKEMFDAVQKGNVDKLKKLGKEDVEFQFVDHRVKGADHYLQIMKKQLDHGVQFEIKQAQVKDNTVTMTTQVQYGDKTVRVEAKAEYDGGRLQRAEVKLTEEAKEAQKKG` , please.
-0.026

I would be grateful if you could share the reported protease stability score for `DHRVEEVFRRYLEAFQDNNPEKAMRLVDPNAKLSVGDTTLDGREDIKKFVRTRHNEQRVKYEIKQIEVDGDKIRVVADLKNQHNGTPDRDTVKMSASVRNGKIKDLKQTTDK` .
-0.132

What value of measured protease stability score is listed for `DEKQQARDLVKELRDALKHGNEKQVVKMADENAKLQVGDKKVHGRKDIDKWAKDLRDRVDHVRLEVRSIDVHNGRMKFTATFTETHNGRKKERTMTMRARIQGDKFKIQQINLS` ?
0.247

# get_value(readout='protease stability score', item= `DEEDVDRFAKTFAEIFQSGNPENIREMMDPNARLHVGERTYHGRETIVQYLKRLRRDVDSIHLVSITNHGESIVIKVSLDVNGQHVVVHINVHFQNGRIKSMSMTYRDEEDRKKYEG` )
2

Give the measured protease stability score of `DSENVKVVREFIKAVERNDHQKLRDLVDPNATAQIGDKEYTGMDDIVTRIIETIRQLRFKIKLHHVDNHNGVVNVKAVFTFEHNGKPDKREVDIRVEITNGKVTNFQYQEHK` .
2.08

# get_value(readout='protease stability score', item= `DEEKIARHVVRTWMENLKTGNFKEIEKMIDKDVEFEIGDKTVTGREEVRKRRKHEKDQADHIEVQVHDVRARGDKVNIDVVMEINNNGRTTTRRFVLVLSIHNGHAKIKMVTQG` )
1.09

Would you mind telling me what protease stability score value was observed for `DEHVSRNLLRVLKLMHKGNFEEVVNNMDPNARIKVGDKEVHGREKEQTKNRKKEKHMELKVDDYRFRDNNGQVEAEVDQKFTHDGQPRSERFKFRVEAHNGRIKKQSQKEDR` ?
0.007

What protease stability score value was documented for this sequence, `DEKFKEAVERFIKALQDNNHKEMKDNADPNVKAQVGDSEVHGMDEMLRQLYKRYQELRVSYKHLSITVRGDKVEIRASVKLVHNGTPTEREVSVEVEAKNGRIKSMRINNTK` ?
0.493

# get_value(readout='protease stability score', item= `DERMDDTLRRLVERGDFHKIAENADPNVRMQVGNKVFHGREEVRRAAERWQNQVDHYQVDSVRVHNGHVSAHVQATVNGQRIRFTIKIDVQGDKVQRMEIEFTSEEQKKLQDEAVE` )
1.41
